Listed below: pKd values for each entry.
- system name: recombinant human GITR (Cat No. 13643-H08H, Lot No. LC12JA2509, Sino Biological) (human) (UniProt Q9Y5U5)
- protocol: SPR Biacore 8K, multi-cycle kinetics, purified IgG captured on Protein A, GITR as analyte
In simple prose, pKd is minus the logarithm base ten of a concentration in moles per litre.

INSERT INTO assay_data (binder, endpoint_value) VALUES
  ('anti-GITR 51B VH3/VL4 humanized antibody (human IgG1, kappa) (antibody, V domains shown, also called VH3/Vk4; 51B VH3/Vk4) VH: QVQLVQSGAEVKKPGASVKVSCKTTGYRFTGYWIEWVRQPPGKGLEWIGEILPGSGATYYSENFKGKVTITADTSTDTAYMELSSLRSEDTAIYYCARKGGYYAMDYWGQGTLVTVSS VL: EIVLTQSPATLSLSPGERATLSCTASSSVSSSYFHWYQQKPGKAPKLWIYSTSNLQSGVPDRFSGSGSGTDYTLTISSLQAEDVATYYCHLYHRSPRTFGGGTKVEIKR', 9.17);

Field request: pKd | item: anti-GITR 51B VH4/VL4 humanized antibody (human IgG1, kappa) (antibody, V domains shown) VH: QVQLVQSGAEVKKPGASVKVSCKTTGYRFTGYWINWVRQPPGKGLEWIGEILPGSGATYYSENFKGKVTITADTSTDTAYMELSSLRSEDTAIYYCARKGGYYAMDYWGQGTLVTVSS VL: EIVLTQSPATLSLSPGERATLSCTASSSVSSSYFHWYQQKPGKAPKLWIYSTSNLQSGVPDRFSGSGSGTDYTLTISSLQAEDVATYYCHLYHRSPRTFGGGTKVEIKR
9.08

Origin of measurements: patent EP4339209A1
